This section presents sequences with their documented apparent KD of MS2 coat protein values.
Tested on: MS2 coat protein
test: apparent KD of MS2 coat protein; designed switch direction (-1 OFF switch, 1 ON switch): -1; higher = weaker reporter binding
run conditions: Eterna round: R95; input ligand: microRNA oligo, concentration not stated

{"columns": ["chain sequence", "apparent KD of MS2 coat protein"],
 "data": [
  ["CUUCACCCACCAGAGCUCACCCACAAACCUGCCCUGGUGACAUGAGGAUCACCCAUGUUUUUUGCCCGUCUUAUCUU [Diletibi] (puzzle: Sensor v3, turn-off variant 2)", "241 nM"],
  ["UUCCUCGUUGUGAGGAUAUCGUCCGUGUUUUGUUACGAGAAGGCACAUGAGGAUCACCCAUGUUACUUGAUGUU [JR_BMOE4_Sub073] (puzzle: Brourd's mod of Exclusion 4)", "18.9 nM"],
  ["UAAUAACAAGCAGGAUCCUACAUGAGGAUCACCCAUGUGCUCGUCUUAUAAAGUACUAUCACGAAAGUGAUAGUACA [Mat - Sensor v3 - turn-off var 1 - Eli Mod - D70] (puzzle: Sensor v3, turn-off variant 1)", "148 nM"],
  ["AGCCUACAUGAGGAUCACCCAUGUCAGGAUAUCUCGCGGCGCGUCAAGUUCACGCCGCAGAGAAGGGACUCGGG [Ceusxeatis] (puzzle: Exclusion 1)", "37.6 nM"]
]}

# next sequence below
Prompt line: What value of apparent KD of MS2 coat protein on MS2 coat protein does AAUAACAAGCCGAUCCUAAACAUGAGGAUCACCCAUGUGCUCGUCUUGUAAAGUACUAUCACGAAAGUGAUAGUACA (puzzle: Sensor v3, turn-off variant 1) have?
Response line: 345 nM

---

Test system: K4 kissing-loop RNA reporter
test: apparent KD of K4 kissing-loop reporter; higher = weaker reporter binding
run conditions: Eterna round: R107; input ligand: none
Listed here are sequences together with their documented apparent KD of K4 kissing-loop reporter.
Enter your answer as a number in nM; do not include the unit.

Worked cases, apparent KD of K4 kissing-loop reporter given:
{"columns": ["chain sequence", "measured on", "quantity", "observed value"],
 "data": [
  ["UGAGGAGAUUAUGAUACCAGCAGAGAGAGAGAGGAAGUAUAGUGAUGUUAUAUGAGAUAAUGCCCUUGGCAGCAUAAGAAGAAGG [#20 K4 Theophylline B Same State]", "K4 kissing-loop RNA reporter", "apparent KD of K4 kissing-loop reporter", 148],
  ["CAUACGCAUGGAGGAUAUGAGAUUUCUCAUAUUAUUGCUUAUUCUCAGUGAUGUUGGGAUUUAAGCUCAGAAGGCCAUGUGUAUG [Ex FMN B 10]", "K4 kissing-loop RNA reporter", "apparent KD of K4 kissing-loop reporter", 98],
  ["AAUUUAUUAACUGAUACCAGACUUUAAUUUAUAUAUAUGUCUAGUGAUGUUAAACAUAUUGUCCCUUGGCAGCAGUAUUUAUUAA [JR_SSTheophyB_Sub020]", "K4 kissing-loop RNA reporter", "apparent KD of K4 kissing-loop reporter", 755],
  ["AAGCAGUCACUCGAAGCCAUCGAAGAUGGACGAGGACCGGUACGGCCGCCACUCGGAGUGAUGUUCCGAAGACUGCAAAAUAAAA", "K4 kissing-loop RNA reporter", "apparent KD of K4 kissing-loop reporter", 296],
  ["UGACUGGAUGGAAGGAGCGCUAAACUCCUAGUGAUGUUAGGGAUAUGAGGCAAAGCCUCGAGGCAGGUAGGUCGCCAUCUAGUCU [FiskerMod 19 - Jieux - Same State - Arginine B]", "K4 kissing-loop RNA reporter", "apparent KD of K4 kissing-loop reporter", 135]
]}

Kindly review the next sequence as well.
Prompt line: Query (sequence): AAACUUGCAGUGAUGUUGCAAGUAGGUGAUACCAGCAUCGAAAGAUGCCCUUGGCAGCACCAAAACAUCACUUAGGUAUCACCAA [(H1)-(H2)-(T1)-(T2)-(H)'-(T)'_Design3] ; field requested: apparent KD of K4 kissing-loop reporter
Response line: 210

---

Test system: MS2 coat protein
test: apparent KD of MS2 coat protein, switch ON state; designed switch direction (-1 OFF switch, 1 ON switch): -1; higher = weaker reporter binding
run conditions: FMN input: 0 or 200 uM; Eterna round: R93 (includes R88 designs)
quantity: apparent KD of MS2 coat protein

Some solved entries appear below for comparison.
{"columns": ["chain sequence", "apparent KD of MS2 coat protein"],
 "data": [
  ["AAAACGGUAGGAUAUACGAUUUGGAACUAGACCGAGGAACCACAUGAGGAUCACCCAUGUAGAAGGACCAAAAA [EX2 Malc#18]", "11.9 nM"],
  ["AAAAAAGGAGGAUAUACGAACAUGUCGAAAGACGUGAAGGGACAUGAGGAUCACCCAUGUAGAAGGUCUAAAAA [Mat - Exclusion 2 - JL mod - D87]", "30.7 nM"]
]}

Prompt line: So what's the measured apparent KD of MS2 coat protein for this one? GGGUCACAUGAGGAUCACCCAUGUAAGGAUAUGCUAGGGAUGGAAACCAUUCCGCAACGCAGAAGGUACUAAAG [Janelle Amethyst 18 Mod 12 - Jieux - Exclusion 1]
Response line: 50.4 nM

Prompt line: Requested read-out: apparent KD of MS2 coat protein. Entry: GAUCCACAUGAGGAUCACCCAUGUAAGGAUAUUUAAAACCGGAGGAAACCCUCCGAAGAAAGAAGGUACAAAAC [Atceabi]
Response line: 14.6 nM

Prompt line: Which apparent KD of MS2 coat protein value belongs to AAGAAGUCAGGAUAUACAUGAGGAUCACCCAUGUAAAAGAAAGAGGGAAAAGAGAAAAGUAGAAGGGACAAGAA [Arsinoe I] ?
Response line: 29.1 nM

Prompt line: Look up apparent KD of MS2 coat protein: AACAUGUCAGGAUAUGUAGCAAAAGGUGAUCAAAAAAAGCUACAGAAGGGACAUGAGGAUCACCCAUGUAAAAA [Ex4: 934]
Response line: 126 nM

---

# maps each entry to its apparent KD of MS2 coat protein
System: MS2 coat protein
test: apparent KD of MS2 coat protein; designed switch direction (-1 OFF switch, 1 ON switch): 1; higher = weaker reporter binding
run conditions: Eterna round: R95; input ligand: microRNA oligo, concentration not stated
// note: answer is a bare numeric in nM

{"columns": ["chain sequence", "measured on", "observed value"],
 "data": [
  ["AGUCCAGCCUGAGCUGGACAAAAGCAUGUACAUGAGGAUCACCCAUGUCAUGUACAAGCUUUUUGCUCGUUUUAAAA [Zipper 46 - 13] (puzzle: Sensor for hsa-mir-208a)", "MS2 coat protein", 12.9],
  ["GUAAAACAUGAGGAUCACCCAUGUAAUAAUAUGGGAGGAUAUCAGAUUUAAUUUAAUUUAUGAGAAGGCCUAAAUG [Mat - Same State 1 - Mod of Eli - D59] (puzzle: Same State 1)", "MS2 coat protein", 181],
  ["AGUCCAGCCUGAGCUGGACAAAAGCAUGUACAUGAGGAUCACCCAUGUUCAUGUACAAGCUUUUUGCUCGUCUUGCA [salish99_208a_r3_104x] (puzzle: Sensor for hsa-mir-208a)", "MS2 coat protein", 15],
  ["GGUAAACAUGAGGAUCACCCAUGUAAUAAUAUGGGAGGAUAUGGGAAUUAAUUAAUUAAACCAGAAGGCCUAAUGU [Mat - Same State 1 - D87] (puzzle: Same State 1)", "MS2 coat protein", 536]
]}

Query sequence follows.
Prompt line: What measured apparent KD of MS2 coat protein goes with AUUAUACAUGAGGAUCACCCAUGUCAAUGUAGUCGAGGAUAUGGGUUGCUAUGAGGCGUACUAGAAGGCGAGGAGA [Mat - Same State 1 - Mod of JL - D17] (puzzle: Same State 1) ?
Response line: 99.9

---

Tested on: K4 kissing-loop RNA reporter;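 further: bound reporter read as fluorescence of individual clusters on recovered sequencing chips by microscopy, with normalized cluster intensities fitted with a binding model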
test: apparent KD of K4 kissing-loop reporter; higher = weaker reporter binding
run conditions: Eterna round: R107; input ligand: tryptophan 2.4 mM
Criterion: apparent KD of K4 kissing-loop reporter meeting or surpassing 100 nM. Met: yes (1). Not met: no (0).

Examples from the recorded data:
{"columns": ["chain sequence", "cat"],
 "data": [
  ["UUUUUCGCGUUUGAUACCAGCAGAGUUGUUCGUGUCUGGAGCGUGAGUGAUGUUCAUGUCUGCCCUUGGCAGCAAACGGGAGAAG [KL-XTheo-B14]", "yes (1)"],
  ["UAACAGGCCCUCACCGUCUUAUUUACAGACCGAGGACCGGUACGGCCGCCACUCGUGAAGUGAUGUUUCAAACAAGCGGUAGGAU", "yes (1)"],
  ["GCGCGUCAUGUCAGCGGUGCCUAUGUCGAUACCAGCGCCGCAAGGCGCCCUUGGCAGCGACGCGCUGGAGUGAUGUUCCAGCGUG [#2 Exclusion - Theophylline A Attempt #11 (HarryS)]", "yes (1)"],
  ["CGGCUUAGUAGCGCGAGUUGACGUGCCAUCCGAGGACCGGUACGGCCGCCACUCGUGAUCUGUUAAAGUGAUGUUUUAAUGCCAU", "yes (1)"],
  ["ACUAGUUAAUCGGCCGCCACUUCUAGUGAUGUUAGAAUUAUCCAGAUUAUCAGCGUAGCACAUUGAAGGACCGGGAUAAGGUGGU [theeternabot_exclusion_KL_Trp_B_2]", "yes (1)"]
]}

Then this sequence:
Prompt line: Does the reported apparent KD of K4 kissing-loop reporter for CGCAAGCAGCCAGUGAUGUUGGCCGCCUUGCGAGGACCGGUACGGCCGCCACUCGAAGGCGGCUACUGGUAAUCCGUCUAACGGA [Lareus] fall at or above the 100 nM mark?
Response line: no (0)

Attribution: the supplement of paper PMC9170038
